meta.source: patent EP3305781A1

- TESTED_TARGET: Trypsin (Homo sapiens, UniProt P07477)
- PROTOCOL: Biochemical inhibition assay, fluorogenic substrate FSR-AMC
- CONDITION_LABEL: read-out: Trypsin IC50; Trypsin 0.88 ng/mL; 30 min incubation with inhibitor; FSR-AMC 20 µM; Tris pH 7.5
pIC50: −log10 of the molar value.
Entries and their measured pIC50 follow.
PROPERTY: pIC50

COMPOUND	ASSAY_VALUE
COc1ccccc1CC(=O)OCC(=O)Nc1c(C)nn(-c2ccccc2)c1C	< 3.70
Cc1nn(-c2ccccc2)c(C)c1NC(=O)COC(=O)C(C)n1c(C)cc2ccccc21 (stereo not shown)	< 4.30
Cc1nn(-c2ccc([N+](=O)[O-])cc2)c(C)c1NC(=O)COC(=O)Cn1c(C(F)(F)F)cc2ccccc21	< 3.70
Cc1nn(-c2ccccc2)c(C)c1NC(=O)COC(=O)Cc1cccs1	< 3.70

* * *

Entries and their measured IC50 follow.
- TESTED_TARGET: Factor Xa (Homo sapiens, UniProt P00742)
- Sequence (P00742 235-488 limits assumed): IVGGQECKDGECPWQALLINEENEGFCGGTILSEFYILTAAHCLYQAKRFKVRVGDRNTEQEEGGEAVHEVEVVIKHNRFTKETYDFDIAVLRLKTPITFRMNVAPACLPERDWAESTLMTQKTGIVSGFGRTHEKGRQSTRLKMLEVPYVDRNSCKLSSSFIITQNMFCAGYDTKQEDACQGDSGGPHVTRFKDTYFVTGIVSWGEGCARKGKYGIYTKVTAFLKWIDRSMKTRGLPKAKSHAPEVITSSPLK
- Sequence (P00742 41-179 partner limits assumed): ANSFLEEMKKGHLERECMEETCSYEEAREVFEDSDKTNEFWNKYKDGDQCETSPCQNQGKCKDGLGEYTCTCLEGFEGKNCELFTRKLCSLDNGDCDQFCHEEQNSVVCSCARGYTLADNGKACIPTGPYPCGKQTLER
- PROTOCOL: Biochemical inhibition assay, fluorogenic substrate FSR-AMC
- CONDITION_LABEL: read-out: Factor Xa IC50; Factor Xa 4 nM; 30 min incubation with inhibitor; FSR-AMC 20 µM; Tris pH 7.5

COMPOUND	IC50
Cc1nn(-c2ccccc2)c(C)c1NC(=O)COC(=O)Cc1cccc(N)c1	> 200 µM
Cc1nn(-c2ccccc2)c(C)c1N(C)C(=O)COC(=O)Cc1c(C)[nH]c2ccccc12	18.1 µM
Cc1nn(-c2ccccc2)c(C)c1NC(=O)COC(=O)Cc1ccsc1	> 200 µM
Cc1nn(-c2ccccc2)c(C)c1NC(=O)COC(=O)Cn1ccc2c(F)cccc21	> 50 µM
Cc1nn(-c2ccccc2)c(C)c1NC(=O)COC(=O)C(C)c1c[nH]c2ccccc12 (centres unmarked)	> 200 µM
Cc1nn(-c2ccccc2)c(C)c1NC(=O)COC(=O)C(C)n1c(C)cc2ccccc21 (centres unmarked)	> 50 µM
Cc1cccc(NC(=O)COC(=O)Cc2c(C)[nH]c3ccccc23)c1	> 200 µM
Cc1cc(C)n(CC(=O)OCC(=O)Nc2c(C)nn(-c3ccccc3)c2C)n1	> 200 µM

* * *

- TESTED_TARGET: Factor Xa (Homo sapiens, UniProt P00742)
- PROTOCOL: Biochemical inhibition assay, fluorogenic substrate FSR-AMC
- CONDITION_LABEL: read-out: Factor Xa IC50; Factor Xa 4 nM; 30 min incubation with inhibitor; FSR-AMC 20 µM; Tris pH 7.5
pIC50: −log10 of the molar value.
PROPERTY: pIC50

COMPOUND	ASSAY_VALUE
CCc1cc2ccccc2n1CC(=O)OCC(=O)Nc1c(C)nn(-c2ccccc2)c1C [compound 36]	< 4.30
Cc1nn(-c2ccccc2)c(C)c1NC(=O)COC(=O)Cn1ccc2cccc(Cl)c21 [compound 31]	< 4.30
COc1ccccc1NC(=O)COC(=O)Cc1c(C)[nH]c2ccccc12 [compound 77]	4.68
COc1ccc(CC(=O)OCC(=O)Nc2c(C)nn(-c3ccccc3)c2C)cc1 [compound 52]	< 3.70

* * *

- TESTED_TARGET: Thrombin (Homo sapiens, UniProt P00734)
- PROTOCOL: Biochemical inhibition assay, fluorogenic substrate FSR-AMC
- CONDITION_LABEL: read-out: Thrombin IC50; Thrombin 9.8·10^-5 NIH unit/mL; 30 min incubation with inhibitor; FSR-AMC 20 µM; Tris pH 7.5
pIC50: −log10 of the molar value.
Entries and their measured pIC50 follow.
PROPERTY: pIC50

COMPOUND	ASSAY_VALUE
Cc1nn(-c2ccccc2)c(C)c1NC(=O)COC(=O)Cc1ccccc1C(F)(F)F [compound 63]	< 3.70
Cc1nn(-c2ccccc2)c(C)c1NC(=O)C(C)OC(=O)Cn1c(C)cc2ccccc21 (racemic) [compound 37]	< 4.30
Cc1[nH]c2ccccc2c1CC(=O)OCC(=O)NC(C)(C)C [compound 67]	< 3.70
Cc1nn(-c2ccccc2)c(C)c1NC(=O)COC(=O)Cc1cccc2ccccc12 [compound 42]	< 4.30
Cc1nn(-c2ccccc2)c(C)c1NC(=O)COC(=O)Cn1ccc2cccc(Cl)c21 [compound 31]	< 4.30
Cc1nn(-c2ccccc2)c(C)c1NC(=O)COC(=O)Cc1cccc(N)c1 [compound 55]	< 3.70
Cc1nn(-c2ccccc2)c(C)c1NC(=O)COC(=O)Cc1cccs1 [compound 59]	< 3.70
Cc1nn(-c2ccccc2)c(C)c1NC(=O)COC(=O)Cn1c(C)c(C)c2ccccc21 [compound 15]	< 3.70

* * *

- TESTED_TARGET: KLK6 (Homo sapiens, UniProt Q92876)
- PROTOCOL: Biochemical inhibition assay, fluorogenic substrate FSR-AMC
// boundary case: IC50 equal to 0.6 µM maps to Criterion not met; strictly smaller maps to Criterion met

STRUCTURE_AS_SMILES	TESTED_TARGET	GROUP
Cc1nn(-c2ccc([N+](=O)[O-])cc2)c(C)c1NC(=O)COC(=O)Cn1c(C)cc2ccccc21	KLK6 (Homo sapiens, UniProt Q92876)	Criterion not met
Cc1nn(-c2ccccc2)c(C)c1NC(=O)COC(=O)Cn1cc(C)c2ccccc21	KLK6 (Homo sapiens, UniProt Q92876)	Criterion not met
Cc1ccc(-n2nc(C)c(NC(=O)COC(=O)Cc3c[nH]c4ccccc34)c2C)cc1	KLK6 (Homo sapiens, UniProt Q92876)	Criterion not met
Cc1nn(-c2ccccc2C(F)(F)F)c(C)c1NC(=O)COC(=O)Cn1c(C)cc2ccccc21	KLK6 (Homo sapiens, UniProt Q92876)	Criterion met
Cc1ccc(-n2nc(C)c(NC(=O)COC(=O)Cn3c(C)cc4ccccc43)c2C)cc1	KLK6 (Homo sapiens, UniProt Q92876)	Criterion met
Cc1nn(-c2ccccc2)c(C)c1NC(=O)COC(=O)Cn1ccc2ccccc21	KLK6 (Homo sapiens, UniProt Q92876)	Criterion not met
Cc1nn(-c2ccc(C#N)cc2)c(C)c1NC(=O)COC(=O)Cn1c(C)cc2ccccc21	KLK6 (Homo sapiens, UniProt Q92876)	Criterion met

* * *

- TESTED_TARGET: Factor Xa (Homo sapiens, UniProt P00742)
- PROTOCOL: Biochemical inhibition assay, fluorogenic substrate FSR-AMC
- CONDITION_LABEL: read-out: Factor Xa IC50; Factor Xa 4 nM; 30 min incubation with inhibitor; FSR-AMC 20 µM; Tris pH 7.5
pIC50: −log10 of the molar value.
Entries and their measured pIC50 follow.
PROPERTY: pIC50

STRUCTURE_AS_SMILES	PROPERTY	ASSAY_VALUE
Cc1nn(-c2ccccc2)c(C)c1NC(=O)COC(=O)Cc1cc(Cl)sc1Cl	pIC50	< 3.70
Cc1ccccc1NC(=O)COC(=O)Cn1c(C)cc2ccccc21	pIC50	< 4.30
Cc1nn(-c2ccccc2)c(C)c1NC(=O)COC(=O)Cc1cccs1	pIC50	< 3.70
Cc1nn(-c2ccccc2)c(C)c1NC(=O)COC(=O)Cc1cccc(C#N)c1	pIC50	< 3.70
Cc1[nH]c2ccccc2c1CC(=O)OCC(=O)NC1CCCC1	pIC50	< 3.70
Cc1nn(-c2ccccc2)c(C)c1NC(=O)COC(=O)Cc1ccco1	pIC50	< 3.70
Cc1[nH]c2ccccc2c1CC(=O)OCC(=O)NC(C)(C)C	pIC50	< 3.70
Cc1[nH]c2ccccc2c1CC(=O)OCC(=O)Nc1cncnc1	pIC50	3.83
Cc1[nH]c2ccccc2c1CC(=O)OCC(=O)Nc1ccc(F)cn1	pIC50	4.18
Cc1[nH]c2ccccc2c1CC(=O)OCC(=O)Nc1cnn(-c2ccccc2)c1	pIC50	< 4.30
Cc1nn(-c2ccc([N+](=O)[O-])cc2)c(C)c1NC(=O)COC(=O)Cn1c(C(F)(F)F)cc2ccccc21	pIC50	< 3.70
Cc1nn(-c2ccccc2)c(C)c1NC(=O)COC(=O)Cc1coc2ccccc12	pIC50	< 4.30
Cc1nn(-c2ccccc2)c(C)c1NC(=O)COC(=O)Cn1c(C(F)(F)F)cc2ccccc21	pIC50	< 3.70
Cc1[nH]c2ccccc2c1CC(=O)OCC(=O)Nc1ccccc1Cl	pIC50	4.46
Cc1cc2ccccc2n1CC(=O)OCC(=O)Nc1ccccc1	pIC50	< 4.30
COc1ccc(NC(=O)COC(=O)Cc2c(C)[nH]c3ccccc23)cc1	pIC50	< 3.70
Cc1nn(-c2ccccc2)c(C)c1NC(=O)COC(=O)Cc1ccccc1Br	pIC50	< 3.70
Cc1nn(-c2ccccc2)c(C)c1NC(=O)COC(=O)Cc1c(C)[nH]c2ccccc12	pIC50	< 4.30

* * *

- TESTED_TARGET: Trypsin (Homo sapiens)
- PROTOCOL: Biochemical inhibition assay, fluorogenic substrate FSR-AMC
- CONDITION_LABEL: read-out: Trypsin IC50; Trypsin 0.88 ng/mL; 30 min incubation with inhibitor; FSR-AMC 20 µM; Tris pH 7.5
Entries and their measured IC50 follow.

STRUCTURE_AS_SMILES	IC50
Cc1cc2ccccc2n1CC(=O)OCC(=O)Nc1ccccc1	> 50 µM
Cc1[nH]c2ccccc2c1CC(=O)OCC(=O)Nc1cncnc1	> 200 µM
Cc1nn(-c2ccccc2)c(C)c1NC(=O)COC(=O)Cc1ccccc1	> 50 µM
Cc1nn(-c2ccccc2)c(C)c1NC(=O)COC(=O)Cc1ccccn1	> 200 µM
Cc1nn(-c2ccccc2)c(C)c1NC(=O)COC(=O)Cn1ccc2cccc(Cl)c21	> 50 µM
Cc1nn(-c2ccccc2)c(C)c1NC(=O)COC(=O)Cc1ccsc1	> 200 µM
Cc1[nH]c2ccccc2c1CC(=O)OCC(=O)Nc1cccc(C(N)=O)c1	82.1 µM
Cc1nn(-c2ccccc2N)c(C)c1NC(=O)COC(=O)Cn1c(C)cc2ccccc21	> 200 µM
Cc1nn(-c2ccccc2)c(C)c1NC(=O)COC(=O)Cc1ccccc1OCc1ccccc1	> 200 µM
